Data credit: ChEMBL document CHEMBL1123417

- System: Pseudomonas aeruginosa
- procedure-text: Antibacterial activity against Pseudomonas aeruginosa (UI-18)
property-measured: MIC (µg/mL)
Respond numerically; units are µg/mL and should not be typed.

Known results for compounds:
[[record]]
smiles_representation = "CCn1cc(C(=O)O)c(=O)c2cc(F)c(C)cc21"
target_or_test_system = "Pseudomonas aeruginosa"
observed = 12.5

[[record]]
smiles_representation = "CCn1cc(C(=O)O)c(=O)c2cc(F)c(N3CCN(CC#N)CC3)cc21"
target_or_test_system = "Pseudomonas aeruginosa"
observed = 6.3


Query: What value of measured MIC is listed for `CCn1cc(C(=O)O)c(=O)c2ccc(/C=N/O)nc21` ?
Response: 100

Query: What value of measured MIC is listed for `CCn1cc(C(=O)O)c(=O)c2cc(F)c(N3CCN(C(C)=N)CC3)cc21` ?
Response: 1.6

Query: What value of measured MIC is listed for `CCn1cc(C(=O)O)c(=O)c2c(N)nc(N3CCNCC3)nc21` ?
Response: 25

Query: What value of measured MIC is listed for `CNn1cc(C(=O)O)c(=O)c2cc(F)c(N3CCN(C)CC3)cc21` ?
Response: 0.8

Query: What value of measured MIC is listed for `CCn1cc(C(=O)O)c(=O)c2cc(F)c(N3CCN(C)CC3)c(F)c21` ?
Response: 0.8

* * *

- System: Pseudomonas aeruginosa
- procedure-text: Antibacterial activity against Pseudomonas aeruginosa (UI-18)
property-measured: log10 MIC (log10 of the value in µg/mL)
Recorded MIC (log10, µg/mL)

[[record]]
smiles_representation = "CCn1cc(C(=O)O)c(=O)c2cc(F)c(N3CCC(C(N)=O)CC3)cc21"
observed = 1.70


Query: What value of measured log10 MIC is listed for `CCn1cc(C(=O)O)c(=O)c2cc(F)c(SCCN)cc21` ?
Response: 0.49

Query: What value of measured log10 MIC is listed for `CCn1cc(C(=O)O)c(=O)c2cc(F)c(NCCN)nc21` ?
Response: 1.70

Query: What value of measured log10 MIC is listed for `CCn1cc(C(=O)O)c(=O)c2cc(F)c(Cl)cc21` ?
Response: 1.70

Query: What value of measured log10 MIC is listed for `CCn1cc(C(=O)O)c(=O)c2cc(F)c(N3CCSC3)nc21` ?
Response: 0.20

Query: What value of measured log10 MIC is listed for `CCOC(=O)N1CCN(c2nc3c(cc2F)c(=O)c(C(=O)O)cn3CC)CC1` ?
Response: 2.30

* * *

Each item that follows carries a reported MIC.
- System: Streptococcus pneumoniae
- procedure-text: Antibacterial activity against Streptococcus pneumoniae (SV-1)

[[record]]
smiles_representation = "CCn1cc(C(=O)O)c(=O)c2ccc(/C=C/N3CCN(C)CC3)nc21"
observed = "> 100 µg/mL"


Query: What value of measured MIC is listed for `CCn1cc(C(=O)O)c(=O)cc1C` ?
Response: > 100 µg/mL

Query: What value of measured MIC is listed for `CCn1cc(C(=O)O)c(=O)cc1/C=C/c1ccsc1` ?
Response: > 100 µg/mL

* * *

- Tested on: Escherichia coli
- procedure-text: Antibacterial activity against Escherichia coli (H560)
property-measured: log10 of MIC (log10 of the value in µg/mL)
Recorded MIC (log10, µg/mL)

Known results for compounds:
[[record]]
compound = "CCn1cc(C(=O)O)c(=O)c2cc(F)c(N3CCC(C(F)(F)F)CC3)cc21"
target_or_test_system = "Escherichia coli"
observed = 0.80

[[record]]
compound = "CCn1cc(C(=O)O)c(=O)c2ccc(N3CCNCC3)nc21"
target_or_test_system = "Escherichia coli"
observed = 0.49

[[record]]
compound = "CCn1cc(C(=O)O)c(=O)c2ccc(-c3ccncc3)cc21 [ROSOXACIN]"
target_or_test_system = "Escherichia coli"
observed = -0.70


Query: What value of measured log10 of MIC is listed for `CCn1cc(C(=O)O)c(=O)c2c(N)nc(N3CCN(C)CC3)nc21` ?
Response: 0.49

Query: What value of measured log10 of MIC is listed for `CCn1cc(C(=O)O)c(=O)c2cc(F)c(NC)cc21` ?
Response: 0.49

Query: What value of measured log10 of MIC is listed for `CCn1cc(C(=O)O)c(=O)c2cc(F)c(N3CCCC3)nc21` ?
Response: -0.40

Query: What value of measured log10 of MIC is listed for `CCn1cc(C(=O)O)c(=O)c2cc(F)c(N3CCN(CC#N)CC3)cc21` ?
Response: -0.10
